System: SW 982 tumor spheroid viability
Test: Anticancer human tumor SW 982 cell line growth inhibition;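 also: spheroids exposed to compound for 7 days before readout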
Conditions: second compound 3.16 µM; first compound 3 µM; stronger effect = lower value; spheroids with HUVEC and MSC
Give viability, T/C for every item shown.
One number for each entry, in %.

Find the recorded viability, T/C belonging to CNCc1ccc(-c2cc(-c3nc(-c4ccc(S(=O)(=O)C(C)C)cc4)cnc3N)on2)cc1 + Cn1nnc2c(C(N)=O)ncn2c1=O and report it.
9.23

And what about the compound Cc1sc2c(c1C)C(c1ccc(Cl)cc1)=NC(CC(=O)Nc1ccc(O)cc1)c1nnc(C)n1-2 (centres undefined) + Cn1nnc2c(C(N)=O)ncn2c1=O ?
21.4

And what about the compound Cn1ncnc1[C@H]1c2n[nH]c(=O)c3cc(F)cc(c23)N[C@@H]1c1ccc(F)cc1 + Cn1nnc2c(C(N)=O)ncn2c1=O ?
59.9

API: the following record is the query input.
Find the recorded viability, T/C belonging to O=C(c1cc(Cc2n[nH]c(=O)c3ccccc23)ccc1F)N1CCN(C(=O)C2CC2)CC1 + Cn1nnc2c(C(N)=O)ncn2c1=O and report it.
73.6

---

Give pIC50 for every item shown.
Test system: SW 982 tumor spheroid viability
Test: Anticancer human tumor SW 982 cell line growth inhibition;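 also: spheroids exposed to compound for 7 days before readout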
Conditions: curve of first compound; second compound 1 µM; spheroids with HUVEC and MSC
Experimental: Multicellular complex tumor spheroid response to DNA repair inhibitors in combination with DNA-damaging drugs This study explores the anticancer activities of DNA-damaging drugs and inhibitors of DNA damage repair, both as single agents and in combinations. […] Twenty-six patient-derived or established malignant cell lines were evaluated representing sarcoma, melanoma, small cell lung cancer (SCLC), non-small cell lung cancer (NSCLC), as well as bladder, ovarian and pancreatic cancers. […]
Give bare numbers, as −log10 of the molar value.

Find the recorded pIC50 belonging to O=C(c1cc(Cc2n[nH]c(=O)c3ccccc23)ccc1F)N1CCN(C(=O)C2CC2)CC1 + Cn1nnc2c(C(N)=O)ncn2c1=O and report it.
4.67

And what about the compound Cc1sc2c(c1C)C(c1ccc(Cl)cc1)=NC(CC(=O)Nc1ccc(O)cc1)c1nnc(C)n1-2 (stereo not given) + Cn1nnc2c(C(N)=O)ncn2c1=O ?
6.53

And what about the compound CNCc1ccc(-c2cc(-c3nc(-c4ccc(S(=O)(=O)C(C)C)cc4)cnc3N)on2)cc1 + Cn1nnc2c(C(N)=O)ncn2c1=O ?
6.66

---
Find the recorded pIC50 belonging to COc1ccc([C@@H](O)c2cc(-c3ncnc4cc(N5CCOCC5)ccc34)c(F)cc2Cl)nn1 + Cn1nnc2c(C(N)=O)ncn2c1=O and report it.
5.20

---

System: SW 982 tumor spheroid viability
Test: Anticancer human tumor SW 982 cell line growth inhibition;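 also: spheroids exposed to compound for 7 days before readout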
Conditions: curve of first compound; second compound 0.00949 µM; spheroids with HUVEC and MSC
Could you please mark Satisfied for values of IC50 below 2 µM and Not satisfied for values at or above it?

Hello, is IC50 of the following compound strictly smaller than 2 µM? Cc1sc2c(c1C)C(c1ccc(Cl)cc1)=NC(CC(=O)Nc1ccc(O)cc1)c1nnc(C)n1-2 (stereo not given) + CC[C@@]1(O)C(=O)OCc2c1cc1n(c2=O)Cc2cc3c(CN(C)C)c(O)ccc3nc2-1
Satisfied

And what about the compound [2H]c1nc(C)nc([2H])c1-c1cc(NC[C@@H](C)c2cccc3c(C(=O)NC)ccnc23)ncn1 + CC[C@@]1(O)C(=O)OCc2c1cc1n(c2=O)Cc2cc3c(CN(C)C)c(O)ccc3nc2-1 ?
Not satisfied

And what about the compound COc1cc(C)[nH]c(=O)c1CN1CCc2c(Cl)cc(C(OC)C3COC3)c(Cl)c2C1=O (stereo not given) + CC[C@@]1(O)C(=O)OCc2c1cc1n(c2=O)Cc2cc3c(CN(C)C)c(O)ccc3nc2-1 ?
Not satisfied

---

Tested on: SW 982 tumor spheroid viability
Test: Anticancer human tumor SW 982 cell line growth inhibition;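 also: spheroids exposed to compound for 7 days before readout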
Conditions: second compound 0.003 µM; first compound 0.0949 µM; stronger effect = lower value; spheroids with HUVEC and MSC
Quantity: viability, T/C (%)
Give bare numbers, in %.

Solved entries:
Find the recorded viability, T/C belonging to Cc1sc2c(c1C)C(c1ccc(Cl)cc1)=NC(CC(=O)Nc1ccc(O)cc1)c1nnc(C)n1-2 (stereo not given) + CC[C@@]1(O)C(=O)OCc2c1cc1n(c2=O)Cc2cc3c(CN(C)C)c(O)ccc3nc2-1 and report it.
76.4

And what about the molecule CNCc1ccc(-c2cc(-c3nc(-c4ccc(S(=O)(=O)C(C)C)cc4)cnc3N)on2)cc1 + COc1cc2c(cc1O)CCNC21CSC2c3c(OC(C)=O)c(C)c4c(c3C(COC1=O)N1C(O)C3Cc5cc(C)c(OC)c(O)c5C(C21)N3C)OCO4 ?
0.92

And what about the molecule Cn1ncnc1[C@H]1c2n[nH]c(=O)c3cc(F)cc(c23)N[C@@H]1c1ccc(F)cc1 + CC[C@@]1(O)C(=O)OCc2c1cc1n(c2=O)Cc2cc3c(CN(C)C)c(O)ccc3nc2-1 ?
83.4

Please supply viability, T/C for each of the following items, keeping them in order.
1. Cn1ncnc1[C@H]1c2n[nH]c(=O)c3cc(F)cc(c23)N[C@@H]1c1ccc(F)cc1 + COc1cc2c(cc1O)CCNC21CSC2c3c(OC(C)=O)c(C)c4c(c3C(COC1=O)N1C(O)C3Cc5cc(C)c(OC)c(O)c5C(C21)N3C)OCO4
2. O=C(c1cc(Cc2n[nH]c(=O)c3ccccc23)ccc1F)N1CCN(C(=O)C2CC2)CC1 + COc1cc2c(cc1O)CCNC21CSC2c3c(OC(C)=O)c(C)c4c(c3C(COC1=O)N1C(O)C3Cc5cc(C)c(OC)c(O)c5C(C21)N3C)OCO4

0.37
0.52

---

Give viability, T/C for every item shown.
Test system: SW 982 tumor spheroid viability
Test: Anticancer human tumor SW 982 cell line growth inhibition;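 also: spheroids exposed to compound for 7 days before readout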
Conditions: second compound 0.03 µM; first compound 0.316 µM; stronger effect = lower value; spheroids with HUVEC and MSC
One number for each entry, in %.

Solved entries:
For SW 982 tumor spheroid viability, provide viability, T/C of [2H]c1nc(C)nc([2H])c1-c1cc(NC[C@@H](C)c2cccc3c(C(=O)NC)ccnc23)ncn1 + CC[C@@]1(O)C(=O)OCc2c1cc1n(c2=O)Cc2cc3c(CN(C)C)c(O)ccc3nc2-1 please.
83.7

And what about the compound CC1COCCN1c1cc(-c2ccnn2C)c2ccnc(-c3ccn[nH]3)c2n1 (stereo not drawn) + CC[C@@]1(O)C(=O)OCc2c1cc1n(c2=O)Cc2cc3c(CN(C)C)c(O)ccc3nc2-1 ?
8.15

API: the following record is the query input.
For SW 982 tumor spheroid viability, provide viability, T/C of Cc1cc(C)c(CNC(=O)c2cc(-c3ccc(CN4CCOCC4)cc3)cc3c2cnn3C2CCCC2)c(=O)[nH]1 + CC[C@@]1(O)C(=O)OCc2c1cc1n(c2=O)Cc2cc3c(CN(C)C)c(O)ccc3nc2-1 please.
101

---

System: SW 982 tumor spheroid viability
Test: Anticancer human tumor SW 982 cell line growth inhibition;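 also: spheroids exposed to compound for 7 days before readout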
Conditions: second compound 94.9 pM; first compound 10 µM; stronger effect = lower value; spheroids with HUVEC and MSC
Could you please mark Met for values of viability, T/C below 40% and Not met for values at or above it?

Hello, is viability, T/C of the following compound strictly smaller than 40%? COc1cc(C)[nH]c(=O)c1CN1CCc2c(Cl)cc(C(OC)C3COC3)c(Cl)c2C1=O (stereo unspecified) + COc1cc2c(cc1O)CCNC21CSC2c3c(OC(C)=O)c(C)c4c(c3C(COC1=O)N1C(O)C3Cc5cc(C)c(OC)c(O)c5C(C21)N3C)OCO4
Not met

And what about the compound COc1ccc([C@@H](O)c2cc(-c3ncnc4cc(N5CCOCC5)ccc34)c(F)cc2Cl)nn1 + COc1cc2c(cc1O)CCNC21CSC2c3c(OC(C)=O)c(C)c4c(c3C(COC1=O)N1C(O)C3Cc5cc(C)c(OC)c(O)c5C(C21)N3C)OCO4 ?
Met

And what about the compound [2H]c1nc(C)nc([2H])c1-c1cc(NC[C@@H](C)c2cccc3c(C(=O)NC)ccnc23)ncn1 + COc1cc2c(cc1O)CCNC21CSC2c3c(OC(C)=O)c(C)c4c(c3C(COC1=O)N1C(O)C3Cc5cc(C)c(OC)c(O)c5C(C21)N3C)OCO4 ?
Not met

And what about the compound CC1COCCN1c1cc(-c2ccnn2C)c2ccnc(-c3ccn[nH]3)c2n1 (stereo unspecified) + COc1cc2c(cc1O)CCNC21CSC2c3c(OC(C)=O)c(C)c4c(c3C(COC1=O)N1C(O)C3Cc5cc(C)c(OC)c(O)c5C(C21)N3C)OCO4 ?
Met

---
Hello, is viability, T/C of the following compound strictly smaller than 40%? Cc1cc(C)c(CNC(=O)c2cc(-c3ccc(CN4CCOCC4)cc3)cc3c2cnn3C2CCCC2)c(=O)[nH]1 + COc1cc2c(cc1O)CCNC21CSC2c3c(OC(C)=O)c(C)c4c(c3C(COC1=O)N1C(O)C3Cc5cc(C)c(OC)c(O)c5C(C21)N3C)OCO4
Not met
